So I've got a bunch of compounds here, and I need their IC50 values.
target: rat GPR14 (U-II receptor) (Rattus norvegicus); construct: expressed in transfected cells; assay: Rat UII Calcium Mobilization FLIPR Assay; type: cell-based; settings: average value for the compound tested; read-out: Rat UII FLIPR Average IC50
Sequence (P49684 whole entry): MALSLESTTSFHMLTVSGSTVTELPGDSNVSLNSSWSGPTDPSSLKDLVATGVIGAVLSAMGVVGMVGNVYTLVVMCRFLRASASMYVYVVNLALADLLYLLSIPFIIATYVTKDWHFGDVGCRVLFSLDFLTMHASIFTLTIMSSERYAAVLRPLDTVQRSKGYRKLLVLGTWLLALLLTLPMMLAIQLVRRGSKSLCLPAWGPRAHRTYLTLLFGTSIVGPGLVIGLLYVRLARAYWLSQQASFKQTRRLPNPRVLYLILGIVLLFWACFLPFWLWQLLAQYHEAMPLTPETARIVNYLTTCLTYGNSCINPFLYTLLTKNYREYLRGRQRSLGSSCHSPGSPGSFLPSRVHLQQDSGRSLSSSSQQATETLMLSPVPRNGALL
I only need the number, in nM, no unit after it.

Just so you know, measured IC50 for COc1ccc(CN2C(=O)c3cccc(N4CCN(Cc5cccnc5)CC4)c3C2=O)cc1OC [Cpd 79] came out at 1200

Just so you know, measured IC50 for COCCC(=O)NCCC[C@H](c1ccc(OC)c(OC)c1)N1C(=O)c2cccc(N3CCN([C@H](C)c4ccccc4)CC3)c2C1=O [Cpd 177] came out at 7.1

Just so you know, measured IC50 for COc1ccc([C@@H](CCCNS(=O)(=O)c2cccs2)N2C(=O)c3cccc(N4CCN(Cc5ccoc5)CC4)c3C2=O)cc1OC [Cpd 170] came out at 8.4

Just so you know, measured IC50 for COC(=O)c1ccc(S(=O)(=O)NCCCC(c2ccc(OC)c(OC)c2)N2C(=O)c3cccc(N4CCN([C@H](C)c5ccccc5)CC4)c3C2=O)o1 (some centres unmarked) [Cpd 90] came out at 130

Just so you know, measured IC50 for COc1ccc(C(CCCNS(=O)(=O)c2cccc3cccnc23)N2C(=O)c3cccc(N4CCN([C@H](C)c5ccccc5)CC4)c3C2=O)cc1OC (some centres unmarked) [Cpd 109] came out at 27

Just so you know, measured IC50 for COc1ccc([C@@H](CCCNC(=O)CN(C)C)N2C(=O)c3cccc(N4CCN([C@H](C)c5ccccc5)CC4)c3C2=O)cc1OC [Cpd 143] came out at 28

Just so you know, measured IC50 for COc1ccc(C(CCCNS(=O)(=O)c2c(C)noc2C)N2C(=O)c3cccc(N4CCN([C@H](C)c5ccccc5)CC4)c3C2=O)cc1OC (some centres unmarked) [Cpd 112] came out at 69

Just so you know, measured IC50 for COc1ccc([C@@H](CCCNC(=O)c2cscn2)N2C(=O)c3cccc(N4CCN([C@H](C)c5ccccc5)CC4)c3C2=O)cc1OC [Cpd 163] came out at 15

Just so you know, measured IC50 for COc1cc(Br)c(CN2C(=O)c3cccc(N4CCN([C@H](C)c5ccccc5)CC4)c3C2=O)cc1OC [Cpd 225] came out at 1500

Just so you know, measured IC50 for COc1ccc([C@@H](CCCNS(=O)(=O)c2cccs2)N2C(=O)c3cccc(N4CCN(CC(F)(F)F)CC4)c3C2=O)cc1OC [Cpd 195] came out at 2100

Just so you know, measured IC50 for COc1ccc(CN2C(=O)c3cccc(N4CCN(Cc5ccccn5)CC4)c3C2=O)cc1OC [Cpd 84] came out at 2800
